Run description: NCI Yeast Anticancer Drug Screen. Data for the cln2 rad14 strain (AID 165);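 further: 0% = growth equal to vehicle treated cultures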
Experimental conditions: S. cerevisiae cln2 rad14 strain, at 50.0 µM (retest, dose inferred, filed as 5.0), stronger effect = higher value
Compounds without any hit were thinned out: in the full panel of roughly 79,000, 15% have a hit.
Measured attribute: growth inhibition (%)
Report the figure in % without appending any unit label.

What value of growth inhibition has been reported for the following compound? COc1ccccc1NC(=O)O/N=C(/Cl)C(C)C
28

Can you share its growth inhibition? I mean this compound: CN(C)c1ccccc1CCCCCCc1ccccc1N(C)C
82

I'd like to know its growth inhibition. The compound in question is O=C(OCc1ccccc1)N(CCCCN(CCCNCc1ccccc1)C(=O)OCc1ccccc1)CCCNCc1ccccc1
99

Query: growth inhibition; subject: O=[N+]([O-])c1cc(Br)cc2c1nc(NCCCO)c1ccccc12
89

Entry C/C=C/CSc1cc(NC(=S)c2ccsc2C)ccc1Cl has what growth inhibition?
80

So what does the record say about growth inhibition for CCCCCCCCN=C(N)c1ccc(C(=O)OCC2CCCCC2)cc1 ?
99

State the recorded growth inhibition for this entry: COc1ccc(C(C)=O)c(OC(=O)c2ccccc2)c1OC(=O)c1ccccc1
11

What value of growth inhibition has been recorded for this entry: C=C1CCC[C@@]2(C)CC[C@@H](/C(C)=C\C=C\C(C)(C)O)C[C@H]12
0

Using the record for C=CS(=O)(=O)c1ccc(Cl)cc1 , report its growth inhibition.
98

I would be grateful if you could share the reported growth inhibition for C=CC1(c2ccc(OC)cc2)OCCCO1 .
99

State the recorded growth inhibition for this entry: CC(=O)[O-].O=C(N/N=C/c1ccccc1[O-])c1ccccc1.[Zn+2]
32
